target: human ether-à-go-go-related gene (hERG) potassium channel (human); assay: primary screen, population patch clamp on CHO cells stably expressing hERG; higher = less effect of the substance;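 also: peak tail current of the secondary pulse compared with the same well before compound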
Sequence (Q12809 whole entry, looked up): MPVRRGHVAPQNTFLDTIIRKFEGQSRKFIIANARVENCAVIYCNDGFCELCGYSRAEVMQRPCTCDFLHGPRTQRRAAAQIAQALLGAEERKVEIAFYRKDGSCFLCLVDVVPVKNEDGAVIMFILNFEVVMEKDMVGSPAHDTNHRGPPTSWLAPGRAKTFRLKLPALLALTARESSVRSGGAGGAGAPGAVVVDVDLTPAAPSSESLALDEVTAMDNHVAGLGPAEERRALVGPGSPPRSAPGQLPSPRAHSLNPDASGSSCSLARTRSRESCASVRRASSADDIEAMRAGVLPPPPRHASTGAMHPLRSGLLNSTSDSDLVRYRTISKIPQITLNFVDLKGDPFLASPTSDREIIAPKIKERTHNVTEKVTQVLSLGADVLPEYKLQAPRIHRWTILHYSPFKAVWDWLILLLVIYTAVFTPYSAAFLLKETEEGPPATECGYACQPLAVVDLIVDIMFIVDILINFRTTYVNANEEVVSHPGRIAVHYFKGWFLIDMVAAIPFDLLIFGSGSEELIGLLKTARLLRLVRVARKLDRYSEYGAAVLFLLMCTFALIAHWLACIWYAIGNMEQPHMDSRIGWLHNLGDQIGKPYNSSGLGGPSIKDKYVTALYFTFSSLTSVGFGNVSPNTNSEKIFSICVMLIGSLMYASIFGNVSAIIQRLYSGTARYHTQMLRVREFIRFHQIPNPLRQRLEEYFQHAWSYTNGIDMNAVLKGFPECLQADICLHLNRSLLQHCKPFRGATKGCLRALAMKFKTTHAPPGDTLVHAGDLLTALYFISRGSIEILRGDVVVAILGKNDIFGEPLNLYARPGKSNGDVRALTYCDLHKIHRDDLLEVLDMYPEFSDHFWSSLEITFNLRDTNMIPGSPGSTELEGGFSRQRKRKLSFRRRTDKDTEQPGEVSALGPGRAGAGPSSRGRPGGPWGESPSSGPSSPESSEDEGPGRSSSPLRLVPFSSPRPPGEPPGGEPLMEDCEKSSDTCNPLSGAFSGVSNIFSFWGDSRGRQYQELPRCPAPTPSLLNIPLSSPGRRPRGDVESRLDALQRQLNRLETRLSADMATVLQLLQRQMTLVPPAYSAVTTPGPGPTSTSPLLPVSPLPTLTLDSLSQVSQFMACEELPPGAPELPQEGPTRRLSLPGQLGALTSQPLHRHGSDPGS
Out of some 310,000 compounds screened, about 14,000 (4.5%) showed an effect of 50% or more. The effect is printed as a negative number. The sample as a whole holds a higher share of strong results than the screen did.
Measured hERG current change (%, negative = inhibition) at 10uM values are reported for all entries that follow.
result_type: hERG current change (%, negative = inhibition) at 10uM (%)

INSERT INTO measurements (compound, unit_of_measure, readout_value) VALUES
  ('CCn1nc(C)cc1C(=O)N1CCCC(C(=O)c2ccccc2SC)C1 (stereo not shown)', '%', -1.16),
  ('CSc1cccc(NC(=S)N(CCCN2CCC(C)CC2)Cc2cccs2)c1', '%', -72.9),
  ('CSc1cccc(NC(=S)N(CCCN2CCCC(C)C2)Cc2cccs2)c1 (stereo not shown)', '%', -75.6),
  ('CSc1cccc(NC(=S)N(CCCN2CCCC2)Cc2cccn2Cc2ccc(Cl)cc2)c1', '%', -28.1),
  ('O=C(c1ccc(C(F)(F)F)cc1)C1CCCN(Cc2ccc(CO)o2)C1 (stereo not shown)', '%', -24.6),
  ('CC(C)Sc1nnc(-c2c[nH]c3ccccc23)n1C', '%', 1.3),
  ('CSc1cccc(NC(=S)N(CCCN2CCCC2)Cc2cccs2)c1', '%', -63.7),
  ('O=C(c1cccc(C(F)(F)F)c1)C1CCCN(Cc2cccn2-c2ncccn2)C1 (stereo not shown)', '%', -95.7),
  ('CCN(CC)S(=O)(=O)c1ccc(F)c(C(=O)NCCCN2CCOCC2)c1', '%', -11.7),
  ('Oc1ccc(/C=N/Nc2nc(-c3cccnc3)nc3ccccc23)c(O)c1', '%', -2.97);
